Cited source for all entries: PubChem BioAssay (Tox21)

assay: qHTS assay to identify aromatase inhibitors - cell viability counter screen (AID 743084); conditions: MCF-7 aro ERE viability, CellTiter-Fluor, 24 h; series mostly up to 70.3 µM;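 further: cells stimulated with testosterone during compound exposure; nearly all actives have a fitted effect of over 55% in size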
Results filed as inconclusive are left out. Active and inactive are the calls of the source. The call rests on the fitted dose curve; in most records, active means well fitted cell-killing curve with a large enough effect in the repeat runs; inconclusive means weak or mixed curves, or effect the other way; inactive means no such curve, though single readings can be large or run the other way.
Returns: one label drawn from active, inactive

- ClC1=C(Cl)C2(Cl)C3C(Cl)C=CC3C1(Cl)C2(Cl)Cl (stereo not drawn): inactive
- O=[N+]([O-])c1cc(C(F)(F)F)c(Cl)c([N+](=O)[O-])c1Cl: active

Query :: # fetch the recorded call for Clc1ccc(C(c2ccc(Cl)cc2)C(Cl)(Cl)Cl)cc1 here
Result :: inactive

###

experiment: A CellTox Green Cytotoxicity Assay to monitor cytotoxicity in HEK293 cells - 40 hour (AID 1224871); details: CellTox Green fluorescence; series mostly up to 76.8 µM; further: nearly all actives have a fitted effect of over 45% in size
Inconclusive results are not listed. Calls of active or inactive are those of the source. The call rests on the fitted dose curve; in most records, active means well fitted activation curve with a large enough effect in the repeat runs; inconclusive means weak or mixed curves; inactive means flat fitted curve, though single readings scatter.
Returns: one label drawn from active, inactive

Solved entries:
• CCSC(C)CC1CC(=O)C(/C(CC)=N/OC/C=C/Cl)=C(O)C1 (configuration not stated) = inactive
• ClCc1ccccc1CCl = active
• Fc1ccc(Oc2ccnc3cc(Cl)cc(Cl)c23)cc1 = inactive
• CN(CCCC(O)c1cccnc1)N=O (configuration not stated) = inactive
• CCC(C)(C)C(=O)OC1=C(c2ccc(Cl)cc2Cl)C(=O)OC12CCCCC2 = inactive
• Oc1ccccc1Br = inactive

Query :: # fetch the recorded call for c1ccc(Nc2ccc3ccccc3c2)cc1 here
Result :: inactive

Query :: Entry to check: [Hg+2].[I-].[I-]
Result :: active

Query :: Entry to check: CC(=O)/C=C/c1ccc2c(c1)OCO2
Result :: inactive

###

target: Thyrotropin-releasing hormone receptor (Homo sapiens) (UniProt P34981); assay: qHTS assay to identify small molecule antagonists of the thyrotropin-releasing hormone receptor (TRHR) signaling pathway (AID 1346877); details: TRHR-HEK293, TRH-induced calcium fluorescence, antagonist mode; series mostly up to 51.3 µM; further: on the % scale 0 is the no-effect control and ±100 the full control effect
Sequence (P34981 whole entry, looked up): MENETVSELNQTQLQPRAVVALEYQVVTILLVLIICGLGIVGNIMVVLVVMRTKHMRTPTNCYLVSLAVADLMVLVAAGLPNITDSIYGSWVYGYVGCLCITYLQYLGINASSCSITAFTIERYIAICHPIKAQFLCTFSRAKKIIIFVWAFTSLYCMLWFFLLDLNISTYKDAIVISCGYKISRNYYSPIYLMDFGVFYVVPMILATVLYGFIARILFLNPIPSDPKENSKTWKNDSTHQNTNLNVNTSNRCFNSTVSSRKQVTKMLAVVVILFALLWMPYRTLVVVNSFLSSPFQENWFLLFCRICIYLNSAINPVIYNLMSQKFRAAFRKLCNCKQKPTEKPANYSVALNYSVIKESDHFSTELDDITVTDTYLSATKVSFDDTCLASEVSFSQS
The source made the active and inactive calls. The call rests on the fitted dose curve; in most records, active means well fitted inhibition curve with a large enough effect in the repeat runs (not every such curve was filed as active); inconclusive means weak or mixed curves; inactive means flat fitted curve, though single readings scatter.
measured.parameter: outcome

- S=C=Nc1cccc2ccccc12: inactive
- CC(=O)c1cc(C(C)(C)C)cc2c1CCC2(C)C: inactive
- O=C(CCl)Nc1ccccc1: inactive

###

biological target: Peroxisome proliferator-activated receptor delta (Homo sapiens); experiment: qHTS assay to identify small molecule antagonists of the peroxisome proliferator-activated receptor delta (PPARd) signaling pathway (AID 743215); details: HEK293H PPARd-UAS-bla, beta-lactamase FRET ratio, antagonist, 17 h; series mostly up to 62 µM;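 further: cells stimulated with agonist L165041 at 300 nM final during compound exposure; on the % scale 0 is the no-effect control and ±100 the full control effect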
Inconclusive results are not listed. Activity calls are given as the source filed them. The call rests on the fitted dose curve; in most records, active means well fitted inhibition curve with a large enough effect in the signal ratio in the repeat runs (not every such curve was filed as active); inconclusive means weak or mixed curves, or effect the other way; inactive means no such curve, though single readings can be large or run the other way; the % refers to the signal ratio.
measured.parameter: outcome

* COc1ccc(OC)c(CC(C)N)c1 (stereo not drawn) | inactive
* CC(C)(C)OO | inactive
* CN(C)CCc1c[nH]c2cccc(O)c12 | inactive

###

Test: qHTS assay to identify small molecule antagonists of the peroxisome proliferator-activated receptor delta (PPARd) signaling pathway - cell viability counter screen (AID 743213); further: nearly all actives have a fitted effect of over 50% in size
Settings: PPARd-bla HEK293H viability, CellTiter-Glo luminescence, 17 h; series mostly up to 62 µM
Source text: U.S. Tox21 Program National Center for Advancing Translational Sciences [NCATS] NIH Chemical Genomics Center [NCGC] U.S. Environmental Protection Agency [EPA] National Institutes of Environmental Health Sciences [NIEHS] National Toxicology Program [NTP] U.S. Food and Drug Administration [FDA] […]
Results filed as inconclusive are left out. Active and inactive are the calls of the source. The call rests on the fitted dose curve; in most records, active means well fitted cell-killing curve with a large enough effect in the repeat runs; inconclusive means weak or mixed curves; inactive means no such curve, though single readings can be large or run the other way.
Returns: one label drawn from yes (1) = active, no (0) = inactive

Solved entries:
• CC(=O)[O-].CC(=O)[O-].O.O.[Cd+2] = yes (1)
• BrC(Br)C(Br)(Br)Br = yes (1)
• CCOC(=O)C1(c2ccccc2)CCN(CCC(C#N)(c2ccccc2)c2ccccc2)CC1 = no (0)

Query :: # fetch the recorded call for COc1cc(N)c(Cl)cc1C(=O)NC1CN2CCC1CC2 (stereo not given) here
Result :: no (0)
